- System: S. aureus MW2 (NRS123)
- experimentalDetails: microbe, parasite or virus in culture
- Format: cell-based, Staphylococcus aureus
- conditionParameters: Staphylococcus aureus, NRS123, passage 20; selection group DAP + TMP/SMX
readout: MIC (µg/mL)

1. Cn1nnc(-c2ccc(-c3ccc(N4C[C@H](CO)OC4=O)cc3F)cn2)n1; 0.5
2. C=C[C@]1(C)C[C@@H](OC(=O)CSCCN(CC)CC)[C@]2(C)[C@H](C)CC[C@]3(CCC(=O)[C@H]32)[C@@H](C)[C@@H]1O; 0.5
3. CN(C)[C@@H]1C(O)=C(C(N)=O)C(=O)[C@@]2(O)C(O)=C3C(=O)c4c(O)cccc4[C@@](C)(O)[C@H]3C[C@@H]12; 0.25

====

# maps each entry to its MIC
- Test system: S. aureus MW2 (NRS123)
- experimentalDetails: microbe, parasite or virus in culture
- Format: cell-based, Staphylococcus aureus
- conditionParameters: Staphylococcus aureus, NRS123, passage 0; NRS123 WT
readout: MIC (µg/mL)

1. CCC[C@@H]1C[C@@H](C(=O)N[C@@H]([C@H]2O[C@H](SC)[C@H](O)[C@@H](O)[C@H]2O)[C@H](C)Cl)N(C)C1 [CLI, clindamycin]; 0.125
2. CC(=O)NC[C@H]1CN(c2ccc(N3CCOCC3)c(F)c2)C(=O)O1 [LZD, linezolid]; 2
3. CN[C@H](CC(C)C)C(=O)N[C@H]1C(=O)N[C@@H](CC(N)=O)C(=O)N[C@H]2C(=O)N[C@H]3C(=O)N[C@H](C(=O)N[C@H](C(=O)O)c4cc(O)cc(O)c4-c4cc3ccc4O)[C@H](O)c3ccc(c(Cl)c3)Oc3cc2cc(c3O[C@@H]2O[C@H](CO)[C@@H](O)[C@H](O)[C@H]2O[C@H]2C[C@](C)(N)[C@H](O)[C@H](C)O2)Oc2ccc(cc2Cl)[C@H]1O [VAN, vancomycin]; 1
4. Cn1nnc(-c2ccc(-c3ccc(N4C[C@H](CO)OC4=O)cc3F)cn2)n1 [TR-700, Tedizolid]; 0.5
5. C=C[C@]1(C)C[C@@H](OC(=O)CSCCN(CC)CC)[C@]2(C)[C@H](C)CC[C@]3(CCC(=O)[C@H]32)[C@@H](C)[C@@H]1O [TIA, tiamulin]; 0.5
6. CN(C)[C@@H]1C(O)=C(C(N)=O)C(=O)[C@@]2(O)C(O)=C3C(=O)c4c(O)cccc4[C@@](C)(O)[C@H]3C[C@@H]12 [TET, tetracycline]; 0.5

====

- Test system: S. aureus MW2 (NRS123)
- experimentalDetails: microbe, parasite or virus in culture
- Type: cell-based, Staphylococcus aureus
- conditionParameters: Staphylococcus aureus, NRS123, passage 15; selection group DAP + VAN
One threshold, 0.5 µg/mL, splits the recorded MIC values: lower ones are met, equal or higher ones are not met.

1) CCC[C@@H]1C[C@@H](C(=O)N[C@@H]([C@H]2O[C@H](SC)[C@H](O)[C@@H](O)[C@H]2O)[C@H](C)Cl)N(C)C1; met
2) CN(C)[C@@H]1C(O)=C(C(N)=O)C(=O)[C@@]2(O)C(O)=C3C(=O)c4c(O)cccc4[C@@](C)(O)[C@H]3C[C@@H]12; met
3) CC(=O)NC[C@H]1CN(c2ccc(N3CCOCC3)c(F)c2)C(=O)O1; not met
4) CN[C@H](CC(C)C)C(=O)N[C@H]1C(=O)N[C@@H](CC(N)=O)C(=O)N[C@H]2C(=O)N[C@H]3C(=O)N[C@H](C(=O)N[C@H](C(=O)O)c4cc(O)cc(O)c4-c4cc3ccc4O)[C@H](O)c3ccc(c(Cl)c3)Oc3cc2cc(c3O[C@@H]2O[C@H](CO)[C@@H](O)[C@H](O)[C@H]2O[C@H]2C[C@](C)(N)[C@H](O)[C@H](C)O2)Oc2ccc(cc2Cl)[C@H]1O; not met

meta.source: patent US20130274174A1
